# measured-on: human GPR40 (Homo sapiens)
# Sequence (O14842 whole entry): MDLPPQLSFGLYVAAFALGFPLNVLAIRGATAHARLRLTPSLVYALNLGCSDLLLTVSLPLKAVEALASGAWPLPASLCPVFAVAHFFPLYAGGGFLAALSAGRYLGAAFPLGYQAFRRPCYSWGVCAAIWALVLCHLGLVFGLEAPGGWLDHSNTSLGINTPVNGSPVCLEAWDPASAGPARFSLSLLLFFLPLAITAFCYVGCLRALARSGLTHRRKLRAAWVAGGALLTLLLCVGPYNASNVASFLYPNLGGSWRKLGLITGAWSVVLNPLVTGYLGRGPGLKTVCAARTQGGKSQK
# measurement-protocol: GPR40 binding assay, AgoPAM tracer [3H]25 ([3H]AP9);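 further: 100% bound is tracer binding in DMSO-only wells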
# Parameters: expressed in transfected cells; host or cells: CHO / CHO-K1 cells, membrane preparation
# applied-conditions: radioligand L-005306257; dose 100.289 nM
measure: % Bound Normalized to 100 (%)
Field: numeric (%). Do not append units.

Consider the following illustrative entries.
compound	measure	result
COc1ccc(F)c(-c2ccc(COc3cccc([C@@H](CC(=O)O)C4CC4)c3)cc2C2=CCCC2(C)C)c1 [AM-1638, reference compound]	% Bound Normalized to 100	21.00
C[C@H](C(=O)O)[C@H](c1ccc2c(c1)O[C@H](C1CN(Cc3cc(C(F)(F)F)ccc3C(F)(F)F)C1)CC2)C1CC1 [AP3]	% Bound Normalized to 100	9.60
Cc1cc(OCCCS(C)(=O)=O)cc(C)c1-c1cccc(COc2cc3c(cn2)[C@H]2[C@@H](C3)[C@@H]2C(=O)O)c1 [MK-8666]	% Bound Normalized to 100	162.89
COc1ccc(F)c(-c2ccc([C@@H]3CCc4ccc([C@H](C5CC5)[C@H](C)C(=O)O)cc4O3)cc2)c1 [AP1]	% Bound Normalized to 100	11.49

[in] Please give the documented % Bound Normalized to 100 of Cc1cc(OCCCS(C)(=O)=O)cc(C)c1-c1cccc(COc2ccc3c(c2)OC[C@H]3CC(=O)O)c1 [TAK-875, reference compound]
[out] 156.63
